For each of the compounds below, state its IC50.
# experimentalTarget: GABA transporter 4 (Mus musculus)
# Sequence (P31650 whole entry): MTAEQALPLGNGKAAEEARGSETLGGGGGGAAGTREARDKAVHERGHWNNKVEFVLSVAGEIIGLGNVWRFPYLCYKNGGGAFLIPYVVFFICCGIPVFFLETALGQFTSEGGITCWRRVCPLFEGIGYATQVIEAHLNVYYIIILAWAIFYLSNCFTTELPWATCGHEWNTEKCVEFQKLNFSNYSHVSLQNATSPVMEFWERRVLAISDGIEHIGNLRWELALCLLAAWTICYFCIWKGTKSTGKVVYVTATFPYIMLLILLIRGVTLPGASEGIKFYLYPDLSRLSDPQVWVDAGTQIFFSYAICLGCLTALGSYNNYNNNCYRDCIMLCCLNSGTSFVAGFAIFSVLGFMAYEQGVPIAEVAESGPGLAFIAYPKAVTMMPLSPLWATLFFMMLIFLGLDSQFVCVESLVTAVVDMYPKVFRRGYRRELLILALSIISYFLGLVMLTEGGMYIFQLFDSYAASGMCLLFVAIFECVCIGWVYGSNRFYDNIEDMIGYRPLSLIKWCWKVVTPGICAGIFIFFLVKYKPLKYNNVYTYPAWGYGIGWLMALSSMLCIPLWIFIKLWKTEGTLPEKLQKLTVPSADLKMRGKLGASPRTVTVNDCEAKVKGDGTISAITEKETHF
# assayRemarks: Inhibition of mouse GAT4 expressed in HEK293 cells assessed as [3H]GABA uptake preincubated for 25 mins followed by [3H]GABA/unlabeled GABA addition measured after 4 mins by liquid scintillation counting analysis
Supply the numeric figure in µM, leaving out any unit text.

Exercise: What value of measured IC50 is listed for O=C(O)[C@H]1CNCC[C@H]1CCCC/C=C/c1ccccc1-c1ccccc1 (racemic) ?
Key: 36.7

Exercise: Now give it for O=C(O)[C@H]1CNCC[C@@H]1CCCC/C=C/c1ccccc1-c1ccccc1 (racemic) too.
Key: 83.6

Exercise: // next record O=C(O)[C@H]1CNCC[C@H]1CCCC#Cc1ccccc1Cc1ccccc1 (racemic)
Key: 62.5

---

# experimentalTarget: Sodium- and chloride-dependent GABA transporter 1 (Mus musculus, UniProt P31648)
# assayRemarks: Inhibition of mouse GAT1 expressed in HEK293 cells assessed as [3H]GABA uptake preincubated for 25 mins followed by [3H]GABA/unlabeled GABA addition measured after 4 mins by liquid scintillation counting analysis
readoutLabel: pIC50
Please report pIC50 as the negative decimal logarithm of the molar concentration, giving only the number.

Exercise: Need pIC50, item CN1CC[C@H](CCCC#Cc2ccccc2-c2ccccc2)[C@@H](C(=O)O)C1 (racemic)
Key: 4.43

Exercise: How about O=C(O)[C@H]1CNCC[C@H]1CCC/C=C/c1ccccc1-c1ccccc1 (racemic) ?
Key: 4.17

Exercise: Request: O=C(O)[C@H]1CNCC[C@H]1CCCC#Cc1ccccc1Cc1ccccc1 (racemic)
Key: 4.39

Exercise: Same for O=C(O)[C@H]1CNCC[C@H]1CCC/C=C/c1ccccc1Cc1ccccc1 (racemic)
Key: 4.19

Exercise: Here is the next compound: O=C(O)[C@H]1CNCC[C@@H]1CCCC/C=C/c1ccccc1-c1ccccc1 (racemic)
Key: 4.12

Exercise: Same again, this time with CN1CC[C@H](CCCC#Cc2ccccc2Cc2ccccc2)[C@@H](C(=O)O)C1 (racemic)
Key: 4.59

---

# Test system: Sodium- and chloride-dependent GABA transporter 2 (Mus musculus)
# assayRemarks: Inhibition of mouse GAT3 expressed in HEK293 cells assessed as remaining [3H]GABA uptake at 100 uM preincubated for 25 mins followed by [3H]GABA/unlabeled GABA addition measured after 4 mins by liquid scintillation counting analysis
readoutLabel: Activity (%)
Note: unit % is implicit; provide only the numeric part.

Exercise: Param item = O=C(O)[C@H]1CNCC[C@@H]1CCC/C=C/c1ccccc1-c1ccccc1 (racemic) ; retrieve measured Activity.
Key: 75.7

Exercise: Also check O=C(O)[C@H]1CNCC[C@@H]1CC/C=C/c1ccccc1Cc1ccccc1 (racemic)
Key: 78.1

Exercise: For CN1CC[C@H](CCCC#Cc2ccccc2-c2ccccc2)[C@@H](C(=O)O)C1 (racemic) then?
Key: 56.4

Exercise: Follow-up entry: O=C(O)[C@H]1CNCC[C@H]1CCC#Cc1ccccc1-c1ccccc1 (racemic)
Key: 58.2

---

# experimentalTarget: Sodium- and chloride-dependent GABA transporter 1 (Mus musculus) (UniProt P31648)
# assayRemarks: Displacement of NO 711 from mouse GAT1 expressed in HEK293 cell membranes assessed as remaining marker bound to protein at 100 uM after 40 mins by LC-ESI-MS-MS-based MS binding assay
Could you please report measured Activity for the items listed next?
Returns: string containing the numeric result and its unit.

Exercise: Which Activity value is on record for CN1CC[C@H](CCC#Cc2ccccc2-c2ccccc2)[C@@H](C(=O)O)C1 (racemic) ?
Key: 86.5%

Exercise: What do you have for O=C(O)[C@H]1CNCC[C@H]1CC/C=C/c1ccccc1-c1ccccc1 (racemic) ?
Key: 76.2%

Exercise: Same thing, different compound: O=C(O)[C@H]1CNCC[C@H]1CCC/C=C/c1ccccc1-c1ccccc1 (racemic)
Key: 45.9%

Exercise: Field entry: O=C(O)[C@H]1CNCC[C@H]1CC/C=C/c1ccccc1Cc1ccccc1 (racemic)
Key: 79.6%

Exercise: What about this compound? O=C(O)[C@H]1CNCC[C@H]1CCCC#Cc1ccccc1-c1ccccc1 (racemic)
Key: 83.1%

---

# experimentalTarget: Sodium- and chloride-dependent GABA transporter 1 (Mus musculus) (UniProt P31648)
# assayRemarks: Displacement of NO 711 from mouse GAT1 expressed in HEK293 cell membranes assessed as remaining marker bound to protein at 100 uM after 40 mins by LC-ESI-MS-MS-based MS binding assay
y if Activity is below 80%. n if not; exact matches included in n.

Exercise: Lab note: confirm whether the reported Activity for this compound is below 80%, equality not counting. compound: O=C(O)[C@H]1CNCC[C@H]1CCC#Cc1ccccc1-c1ccccc1 (racemic)
Key: n

Exercise: Then what about the compound CN1CC[C@H](CCCC#Cc2ccccc2-c2ccccc2)[C@@H](C(=O)O)C1 (racemic) ?
Key: y

Exercise: Please do the same for O=C(O)[C@H]1CNCC[C@H]1CCC#Cc1ccccc1Cc1ccccc1 (racemic) as well.
Key: n

Exercise: Note, next up: O=C(O)[C@H]1CNCC[C@@H]1CCC/C=C/c1ccccc1-c1ccccc1 (racemic)
Key: n

Exercise: Similarly, CN1CC[C@H](CCC#Cc2ccccc2Cc2ccccc2)[C@@H](C(=O)O)C1 (racemic) ?
Key: y

---

Kindly state Activity for each of the entries shown.
# experimentalTarget: UniProt P31648
# assayRemarks: Inhibition of mouse GAT1 expressed in HEK293 cells assessed as remaining [3H]GABA uptake at 100 uM preincubated for 25 mins followed by [3H]GABA/unlabeled GABA addition measured after 4 mins by liquid scintillation counting analysis
# Assay type: cell-based
Response body: numeric value in %, unit text excluded.

Exercise: May I ask what Activity has been recorded for O=C(O)[C@H]1CNCC[C@H]1CCC#Cc1ccccc1Cc1ccccc1 (racemic) ?
Key: 70.1

Exercise: Query O=C(O)[C@H]1CNCC[C@H]1CC/C=C/c1ccccc1Cc1ccccc1 (racemic) next
Key: 43.9

Exercise: Now consider O=C(O)[C@H]1CNCC[C@@H]1CC/C=C/c1ccccc1Cc1ccccc1 (racemic) and answer again.
Key: 86.3

Exercise: How about O=C(O)[C@H]1CNCC[C@@H]1CCC/C=C/c1ccccc1-c1ccccc1 (racemic) ?
Key: 73.9

Exercise: Subsequent entry: CN1CC[C@H](CCC#Cc2ccccc2-c2ccccc2)[C@@H](C(=O)O)C1 (racemic)
Key: 79.8

Exercise: Likewise for O=C(O)[C@H]1CNCC[C@H]1CCC#Cc1ccccc1-c1ccccc1 (racemic) ?
Key: 60.4

Exercise: Thanks! And CN1CC[C@H](CCC#Cc2ccccc2Cc2ccccc2)[C@@H](C(=O)O)C1 (racemic) ?
Key: 60.9

Exercise: Proceed to O=C(O)[C@H]1CNCC[C@H]1CCCC#Cc1ccccc1-c1ccccc1 (racemic)
Key: 80

Exercise: Moving on to the next molecule: O=C(O)[C@H]1CNCC[C@@H]1CCCC/C=C/c1ccccc1Cc1ccccc1 (racemic)
Key: 60.5

Exercise: // query: O=C(O)[C@H]1CNCC[C@H]1CC/C=C/c1ccccc1-c1ccccc1 (racemic)
Key: 68.6

---

# experimentalTarget: Sodium- and chloride-dependent GABA transporter 1 (Mus musculus) (UniProt P31648)
# assayRemarks: Displacement of NO 711 from mouse GAT1 expressed in HEK293 cell membranes assessed as remaining marker bound to protein at 1 mM after 40 mins by LC-ESI-MS-MS-based MS binding assay
readoutLabel: Activity (%)
Give the number; % is assumed, so skip it.

Exercise: Using the record for C=CCC[C@H]1CCNC[C@@H]1C(=O)O (racemic) , report its Activity.
Key: 79.9

Exercise: Now the compound C#CCC[C@H]1CCNC[C@@H]1C(=O)O (racemic)
Key: 88.9

Exercise: Next compound up: CCCC[C@H]1CCNC[C@@H]1C(=O)O (racemic)
Key: 91.7

Exercise: // same read-out, input: C#CCCC[C@H]1CCNC[C@@H]1C(=O)O (racemic)
Key: 87.2

---

# experimentalTarget: GABA transporter 4 (Mus musculus)
# assayRemarks: Inhibition of mouse GAT4 expressed in HEK293 cells assessed as remaining [3H]GABA uptake at 1 mM preincubated for 25 mins followed by [3H]GABA/unlabeled GABA addition measured after 4 mins by liquid scintillation counting analysis
# Type: cell-based
readoutLabel: Activity (%)
Numbers only here, please. The scale is %.

Exercise: For the molecule shown here, CCCC[C@H]1CCNC[C@@H]1C(=O)O (racemic) , give the reported Activity.
Key: 87.5

Exercise: Input C=CCC[C@H]1CCNC[C@@H]1C(=O)O (racemic)
Key: 86.1

Exercise: Similarly, C#CCC[C@H]1CCNC[C@@H]1C(=O)O (racemic) ?
Key: 90.4

Exercise: What do we get for C=CCCCC[C@H]1CCNC[C@@H]1C(=O)O (racemic) ?
Key: 89.9

Exercise: Continue with C#CCCC[C@H]1CCNC[C@@H]1C(=O)O (racemic)
Key: 84.9
